- Test system: Mannheimia haemolytica
- Method: minimum inhibitory concentration (MIC)
- Experimental conditions: isolate (source animal id): 179
Reported minimum inhibitory concentration by item:

{"Compound": "CCC[C@@H]1C[C@@H](C(=O)N[C@@H]([C@H]2O[C@H](SC)[C@H](O)[C@@H](O)[C@H]2O)[C@H](C)Cl)N(C)C1", "Tested system": "Mannheimia haemolytica", "Modifier": "=", "minimum inhibitory concentration, µg/mL": 8}
{"Compound": "CNC(C)C1CCC(N)C(OC2C(N)CC(N)C(OC3OCC(C)(O)C(NC)C3O)C2O)O1 (stereo unspecified)", "Tested system": "Mannheimia haemolytica", "Modifier": "=", "minimum inhibitory concentration, µg/mL": 4}
{"Compound": "CC1(C)S[C@@H]2[C@H](NC(=O)Cc3ccccc3)C(=O)N2[C@H]1C(=O)O", "Tested system": "Mannheimia haemolytica", "Modifier": ">", "minimum inhibitory concentration, µg/mL": 8}
{"Compound": "CN[C@@H]1[C@H](O)[C@H](NC)[C@H]2O[C@@]3(O)C(=O)C[C@@H](C)O[C@H]3O[C@@H]2[C@H]1O", "Tested system": "Mannheimia haemolytica", "Modifier": "=", "minimum inhibitory concentration, µg/mL": 32}
{"Compound": "CO/N=C(\\C(=O)N[C@@H]1C(=O)N2C(C(=O)O)=C(CSC(=O)c3ccco3)CS[C@H]12)c1csc(N)n1", "Tested system": "Mannheimia haemolytica", "Modifier": "≤", "minimum inhibitory concentration, µg/mL": 0.25}
{"Compound": "CC[C@H]1OC(=O)C[C@@H](O)[C@H](C)[C@@H](O[C@@H]2O[C@H](C)[C@@H](O)[C@H](N(C)C)[C@H]2O)[C@@H](CCN2C[C@H](C)C[C@H](C)C2)C[C@@H](C)C(=O)/C=C/C(C)=C/[C@@H]1CO[C@@H]1O[C@H](C)[C@@H](O)[C@@H](OC)[C@H]1OC", "Tested system": "Mannheimia haemolytica", "Modifier": "=", "minimum inhibitory concentration, µg/mL": 8}
